- Procedure Summary: Cytotoxicity against human THP1 cells after 72 hrs by MTT assay
- Format: cell-based, THP-1
- Run Conditions: read-out: NOAEL
Reported Property: MNTC at 72 h

{"Line Notation": "COc1ccc(CN(Cc2ccc(Cl)c(Cl)c2)C(=O)c2ccc3nc(N)sc3c2)cc1OC", "MNTC at 72 h": "10 to 25 µM"}
{"Line Notation": "CS(=O)(=O)c1ccc2nc(N)sc2c1", "MNTC at 72 h": "> 25 µM"}
{"Line Notation": "COc1cc(CNC(=O)c2ccc3nc(N)sc3c2)cc(OC)c1OC", "MNTC at 72 h": "> 25 µM"}
{"Line Notation": "N#Cc1ccc(CNC(=O)c2ccc3nc(N)sc3c2)cc1", "MNTC at 72 h": "> 25 µM"}
{"Line Notation": "Nc1nc2ccc(OCc3ccc(Cl)c(Cl)c3)cc2s1", "MNTC at 72 h": "> 25 µM"}
{"Line Notation": "CSc1ccc2nc(N)sc2c1", "MNTC at 72 h": "> 25 µM"}

Batch: MNTC at 72 h for all items listed.
1. Nc1nc2ccc(OC(F)(F)F)cc2s1
2. Nc1nc2ccc(SC(F)(F)F)cc2s1
3. Nc1nc2ccc(C(=O)NCc3ccccc3)cc2s1
4. Nc1nc2ccc(SCc3ccc(Cl)c(Cl)c3)cc2s1

**Result**
> 25 µM
10 to 25 µM
> 25 µM
> 25 µM

* * *

- Procedure Summary: Mitochondrial toxicity in human 786-O cells measured after 6 hrs by MitoTracker Red chloromethyl-X-rosamine based assay
- Type: cell-based, 786-0
Reported Property: IC50 at 6 h

Example entries begin here.
{"Line Notation": "Nc1nc2c(O)cc(C(=O)NCc3ccccc3)cc2s1", "Reported Property": "IC50 at 6 h", "Experimental Value": "> 25 µM"}
{"Line Notation": "Nc1nc2ccc(SCc3ccc(C(=O)NCc4ccccc4)cc3)cc2s1", "Reported Property": "IC50 at 6 h", "Experimental Value": "> 25 µM"}
{"Line Notation": "COC(=O)C1CCN(C(=O)c2ccc(CSc3ccc4nc(N)sc4c3)cc2)CC1", "Reported Property": "IC50 at 6 h", "Experimental Value": "> 25 µM"}
{"Line Notation": "CSc1ccc2nc(N)sc2c1", "Reported Property": "IC50 at 6 h", "Experimental Value": "< 10 µM"}

Batch: IC50 at 6 h for all items listed.
1. Nc1nc2c(C(=O)NCc3ccccc3)cc(O)c(O)c2s1
2. Nc1nc2ccc(C(=O)N(Cc3ccccc3)Cc3ccc(Cl)c(Cl)c3)cc2s1
3. Nc1nc2c(O)cc(C(=O)NCc3ccc(Cl)c(Cl)c3)cc2s1

**Result**
1. 10 to 25 µM
2. 10 to 25 µM
3. > 25 µM

* * *

- Procedure Summary: Inhibition of N-terminal His-tagged Trypanosoma brucei pteridine reductase 1 using di-hydrobiopterine as substrate measured at 1 min interval for 50 mins in presence of NADPH
Exercise: for every item that follows, state its recorded IC50.
The answer should read as a number with its unit following.

{"Line Notation": "Nc1nc2ccc(S(=O)(=O)Cc3ccccc3)cc2s1", "IC50": "57.6 µM"}
{"Line Notation": "N#Cc1ccc(COc2ccc3nc(N)sc3c2)cc1", "IC50": "0.67 µM"}
{"Line Notation": "Nc1nc2ccc(SC(F)(F)F)cc2s1", "IC50": "0.5 µM"}

Batch: IC50 for all items listed.
1. COC(=O)C1CCN(C(=O)c2ccc(CS(=O)(=O)c3ccc4nc(N)sc4c3)cc2)CC1
2. Nc1nc2ccc(OCc3ccccc3)cc2s1
3. Nc1nc2ccc(SCc3ccc(C(=O)NCc4ccccc4)cc3)cc2s1

**Result**
["24.3 µM", "13.4 µM", "0.5 µM"]
